system: IGROV-1; assay: Growth inhibition of human IGROV1 cells after 48 hrs by sulforhodamine B assay; type: functional; details: IGROV-1, 48 h, read-out: pTGI (converted)
PROPERTY LABEL: TGI

What does the record list as TGI for Nc1cc(N)c2nc(-c3ccccc3)c(Sc3ccc(Cl)c(Cl)c3)nc2c1 ?
27.5 µM

What does the record list as TGI for Nc1cc(N)c2nc(-c3ccccc3)c(Sc3ccc(F)cc3)nc2c1 ?
> 100 µM

What does the record list as TGI for COc1ccc(Sc2nc3cc(N)cc(N)c3nc2-c2ccccc2)cc1 ?
> 100 µM

What does the record list as TGI for Nc1cc(N)c2nc(-c3ccccc3)c(Oc3ccc(Cl)c(Cl)c3)nc2c1 ?
32.4 µM

What does the record list as TGI for Nc1cc(N)c2nc(-c3ccccc3)c(Oc3ccc(F)cc3)nc2c1 ?
> 100 µM

What does the record list as TGI for COc1cc(CNc2nc3cc(N)cc(N)c3nc2-c2ccccc2)cc(OC)c1OC ?
> 50.1 µM

What does the record list as TGI for Nc1cc(N)c2nc(-c3ccccc3)c(NCc3ccc(Cl)c(Cl)c3)nc2c1 ?
5.89 µM

What does the record list as TGI for COc1cc(OC)cc(Oc2nc3cc(N)cc(N)c3nc2-c2ccccc2)c1 ?
12.3 µM

What does the record list as TGI for Nc1cc(N)c2nc(-c3ccccc3)c(NCc3ccc(F)cc3)nc2c1 ?
> 100 µM

What does the record list as TGI for COc1ccc(CNc2nc3cc(N)cc(N)c3nc2-c2ccccc2)cc1OC ?
40.7 µM

What does the record list as TGI for COc1cc(CNc2nc3cc(N)cc(N)c3nc2-c2ccccc2)cc(OC)c1 ?
56.2 µM

What does the record list as TGI for COc1ccc(Oc2nc3cc(N)cc(N)c3nc2-c2ccccc2)cc1 ?
> 100 µM

What does the record list as TGI for COc1ccc(CNc2nc3cc(N)cc(N)c3nc2-c2ccccc2)cc1 ?
26.9 µM

###

test system: OVCAR-8; experiment: Growth inhibition of human OVCAR8 cells after 48 hrs by sulforhodamine B assay; type: functional; conditions: OVCAR-8, 48 h, read-out: pTGI (converted)
Exercise: state measured TGI for each of the compounds provided.
# number only, unit µM dropped from output

What does the record list as TGI for Nc1cc(N)c2nc(-c3ccccc3)c(NCc3ccc(Cl)c(Cl)c3)nc2c1 ?
13.5

What does the record list as TGI for Nc1cc(N)c2nc(-c3ccccc3)c(NCc3ccc(F)cc3)nc2c1 ?
6.03

What does the record list as TGI for COc1ccc(CNc2nc3cc(N)cc(N)c3nc2-c2ccccc2)cc1OC ?
33.9

What does the record list as TGI for Nc1cc(N)c2nc(-c3ccccc3)c(Oc3ccc(Cl)c(Cl)c3)nc2c1 ?
89.1

What does the record list as TGI for COc1ccc(CNc2nc3cc(N)cc(N)c3nc2-c2ccccc2)cc1 ?
39.8

What does the record list as TGI for Nc1cc(N)c2nc(-c3ccccc3)c(Sc3ccc(F)cc3)nc2c1 ?
34.7

What does the record list as TGI for COc1cc(OC)cc(Oc2nc3cc(N)cc(N)c3nc2-c2ccccc2)c1 ?
16.2

What does the record list as TGI for COc1cc(CNc2nc3cc(N)cc(N)c3nc2-c2ccccc2)cc(OC)c1 ?
8.13

What does the record list as TGI for Nc1cc(N)c2nc(-c3ccccc3)c(Oc3ccc(F)cc3)nc2c1 ?
47.9

What does the record list as TGI for COc1cc(CNc2nc3cc(N)cc(N)c3nc2-c2ccccc2)cc(OC)c1OC ?
14.8
